Target Of Assay: human CB2 receptor (Homo sapiens, UniProt P34972)
Sequence (P34972 whole entry): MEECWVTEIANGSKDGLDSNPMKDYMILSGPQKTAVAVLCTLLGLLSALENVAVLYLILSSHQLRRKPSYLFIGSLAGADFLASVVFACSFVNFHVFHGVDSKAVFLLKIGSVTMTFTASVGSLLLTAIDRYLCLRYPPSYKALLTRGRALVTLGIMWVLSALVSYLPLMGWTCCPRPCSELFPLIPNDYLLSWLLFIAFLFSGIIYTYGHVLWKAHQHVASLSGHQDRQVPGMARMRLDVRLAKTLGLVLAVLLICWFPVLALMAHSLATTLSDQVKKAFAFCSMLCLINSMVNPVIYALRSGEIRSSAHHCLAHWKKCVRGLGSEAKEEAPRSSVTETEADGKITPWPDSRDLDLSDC
Method Summary: cell-based LANCE cAMP assay in CHO cells stably expressing CB2
Attribute Measured: functional activity at CB2

[[record]]
smiles_repr = "O=C(Cc1ccccc1)NC(NC(=O)Cc1ccccc1)c1ccc(N2CCCC2)cc1"
attribute_measured = "functional activity at CB2"
assay_value = "CB2 inverse agonists"

[[record]]
smiles_repr = "CCN(CC)c1ccc(C(NC(=O)Cc2ccccc2)NC(=O)Cc2ccccc2)cc1"
attribute_measured = "functional activity at CB2"
assay_value = "CB2 inverse agonists"

[[record]]
smiles_repr = "CCCCCC(=O)NC(NC(=O)CCCCC)c1ccc(N(CC)CC)cc1"
attribute_measured = "functional activity at CB2"
assay_value = "CB2 inverse agonists"

[[record]]
smiles_repr = "CCCN(CCC)c1ccc(C(NC(=O)Cc2ccccc2)NC(=O)Cc2ccccc2)cc1"
attribute_measured = "functional activity at CB2"
assay_value = "CB2 inverse agonists"

[[record]]
smiles_repr = "CC(C)c1ccc(C(NC(=O)Cc2ccccc2)NC(=O)Cc2ccccc2)cc1"
attribute_measured = "functional activity at CB2"
assay_value = "CB2 inverse agonists"

